TARGET_ENTITY: androgen receptor (AR-LBD) (Rattus norvegicus)
Construct: 5 μL of 2×AR-LBD/Fluoromone AL Red Complex contained in the kit; purchased Invitrogen
Sequence (P15207 651-882 limits assumed): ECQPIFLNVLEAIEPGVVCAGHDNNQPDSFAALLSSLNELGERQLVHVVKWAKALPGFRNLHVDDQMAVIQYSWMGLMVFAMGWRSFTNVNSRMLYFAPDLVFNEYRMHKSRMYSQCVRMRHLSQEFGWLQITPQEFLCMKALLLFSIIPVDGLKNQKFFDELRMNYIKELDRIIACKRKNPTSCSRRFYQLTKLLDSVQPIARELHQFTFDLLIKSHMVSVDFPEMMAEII
ASSAY_PROTOCOL: Evaluation of androgen receptor affinity (PolarScreen Androgen Receptor Competitor Assay Kit, Red; fluorescence polarization)
EXPERIMENTAL_PARAMETERS: 22° C. for 5 hours, relative to binding rate of 1 μM DHT, read-out: AR affinity (pEC50) (converted)
Protocol: Evaluation of an Androgen Receptor Affinity To examine the interaction of a compound with an androgen receptor, evaluation was carried out in accordance with the following procedure using PolarScreen™ Androgen Receptor Competitor Assay Kit, Red (Invitrogen). To 2 wells each of a 384 well black plate was added 5 μL of the compound solution. […] After 5 hours of the reaction, fluorescence polarization was measured and the affinity was evaluated. […]
PROPERTY_LABEL: EC50 (nM)

Cc1sc(N(Cc2ccc(F)cn2)c2ccc(C#N)cc2)nc1C(=O)NS(C)(=O)=O :: 316

(P) CS(=O)(=O)NC(=O)c1nc(N(Cc2ccccc2F)c2ccc(C#N)cc2)sc1Br
(Q) Cc1sc(N(CCC2CCCCC2)Cc2ccc(Cl)cc2)nc1C(=O)NS(=O)(=O)C(F)(F)F
(R) Cc1sc(N(Cc2ccc(S(C)(=O)=O)cc2)c2ccc(C#N)cc2)nc1C(=O)NS(C)(=O)=O
(S) Cc1sc(N(Cc2cc(F)c(F)c(F)c2)c2ccc(C#N)cc2)nc1C(=O)NS(C)(=O)=O
(T) Cc1sc(N(Cc2ccc(OCC(=O)N3CCOCC3)cc2)c2ccc(C#N)cc2)nc1C(=O)NS(C)(=O)=O
Kindly order the items shown according to EC50, from the highest value down. Reply with the labels, ordered as the question asks.
T, Q, R, P, S

(1) COc1c(F)ccc(CN(c2ccc(C#N)cc2)c2nc(C(=O)NS(C)(=O)=O)c(C)s2)c1F
(2) Cc1sc(N(CCc2ccccc2F)c2ccc(C#N)cc2)nc1C(=O)NS(C)(=O)=O
Determine, for 1 and 2 , which has the greater value of EC50. Lab note: record the label of whichever item you select.
2

(a) Cc1sc(N(Cc2ccccc2F)c2ccc(C#N)cc2)nc1C(=O)NS(C)(=O)=O
(b) Cc1sc(N(Cc2ccc(F)c3cccnc23)c2ccc(C#N)cc2)nc1C(=O)NS(C)(=O)=O
I would appreciate it if you could say which entry, a or b , has the lower EC50 value. Field: selected label. Fill in the label of the entry you choose.
a
(a: 50.1 nM, b: 79.4 nM)

====

TARGET_ENTITY: human androgen receptor (Homo sapiens, UniProt P10275)
Construct: expressed in transfected cells; host or cells: HEK293
Sequence (P10275 1-920): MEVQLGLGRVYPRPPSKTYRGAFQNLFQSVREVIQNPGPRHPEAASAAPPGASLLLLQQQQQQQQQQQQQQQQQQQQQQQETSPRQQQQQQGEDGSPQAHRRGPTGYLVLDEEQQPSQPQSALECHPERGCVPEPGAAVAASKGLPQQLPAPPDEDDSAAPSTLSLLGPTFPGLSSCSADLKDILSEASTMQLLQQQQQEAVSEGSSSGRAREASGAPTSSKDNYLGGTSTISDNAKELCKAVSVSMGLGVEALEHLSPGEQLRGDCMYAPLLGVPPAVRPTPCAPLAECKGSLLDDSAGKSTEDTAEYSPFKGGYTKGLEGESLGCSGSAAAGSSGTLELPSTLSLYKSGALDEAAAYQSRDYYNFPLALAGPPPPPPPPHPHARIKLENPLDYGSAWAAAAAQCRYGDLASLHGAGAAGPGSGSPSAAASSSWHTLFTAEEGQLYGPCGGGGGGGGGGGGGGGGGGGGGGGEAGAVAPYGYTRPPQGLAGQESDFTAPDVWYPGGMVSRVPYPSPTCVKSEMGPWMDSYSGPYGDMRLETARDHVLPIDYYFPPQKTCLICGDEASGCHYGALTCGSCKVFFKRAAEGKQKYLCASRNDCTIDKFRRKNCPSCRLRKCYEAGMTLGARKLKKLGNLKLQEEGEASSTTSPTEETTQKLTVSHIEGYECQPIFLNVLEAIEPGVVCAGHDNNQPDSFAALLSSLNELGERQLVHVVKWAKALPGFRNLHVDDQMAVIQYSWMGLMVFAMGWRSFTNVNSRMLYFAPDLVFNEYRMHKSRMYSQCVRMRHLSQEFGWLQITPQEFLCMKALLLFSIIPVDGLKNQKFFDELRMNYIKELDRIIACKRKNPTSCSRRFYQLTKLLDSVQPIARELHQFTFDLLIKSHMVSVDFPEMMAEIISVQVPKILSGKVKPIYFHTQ
ASSAY_PROTOCOL: Reporter assay of an androgen receptor responsive sequence (luciferase, transiently transfected HEK293 cells)
Assay type: cell-based
EXPERIMENTAL_PARAMETERS: 24 hours incubation, relative to activity of 100 nM DHT, read-out: AR transcriptive activity (pEC50) (converted)
PROPERTY_LABEL: EC50 (nM)

CCc1oc(N(Cc2ccc(Br)cc2)c2ccc(C#N)cc2)nc1C(=O)NS(C)(=O)=O [Compound 653] :: 158

(P) Cc1sc(N(CCc2ccc(Cl)cc2)Cc2ccc(C#N)cc2)nc1C(=O)NS(C)(=O)=O [Compound 503]
(Q) Cc1oc(N(CCc2ccc(C#N)cc2)Cc2ccc(F)cc2Cl)nc1C(=O)NS(C)(=O)=O [Compound 554]
Rank P against Q by their EC50 values and give the higher one. # respond with the chosen item's label
P

====

TARGET_ENTITY: androgen receptor (AR-LBD) (Rattus norvegicus, UniProt P15207)
Construct: 5 μL of 2×AR-LBD/Fluoromone AL Red Complex contained in the kit; purchased Invitrogen
Sequence (P15207 651-882 limits assumed): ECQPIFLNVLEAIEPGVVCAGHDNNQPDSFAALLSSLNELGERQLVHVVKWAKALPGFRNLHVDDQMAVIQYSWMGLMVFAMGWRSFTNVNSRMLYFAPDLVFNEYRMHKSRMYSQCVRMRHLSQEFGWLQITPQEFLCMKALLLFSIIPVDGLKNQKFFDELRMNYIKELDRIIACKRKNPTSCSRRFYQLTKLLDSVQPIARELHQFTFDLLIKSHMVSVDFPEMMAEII
ASSAY_PROTOCOL: Evaluation of androgen receptor affinity (PolarScreen Androgen Receptor Competitor Assay Kit, Red; fluorescence polarization)
EXPERIMENTAL_PARAMETERS: 22° C. for 5 hours, relative to binding rate of 1 μM DHT, read-out: AR affinity (pEC50) (converted)
Method: Evaluation of an Androgen Receptor Affinity To examine the interaction of a compound with an androgen receptor, evaluation was carried out in accordance with the following procedure using PolarScreen™ Androgen Receptor Competitor Assay Kit, Red (Invitrogen). To 2 wells each of a 384 well black plate was added 5 μL of the compound solution. […] After 5 hours of the reaction, fluorescence polarization was measured and the affinity was evaluated. […]
PROPERTY_LABEL: EC50 (nM)

Cc1sc(N(Cc2ccc(F)cc2)c2ccc(C#N)cc2)nc1C(=O)NS(C)(=O)=O :: 63.1
COc1cc(Cl)ccc1CN(c1ccc(C#N)cc1)c1nc(C(=O)NS(C)(=O)=O)c(C)s1 :: 50.1
Cc1sc(N(Cc2cc(F)cc(Cl)c2)c2ccc(C#N)cc2)nc1C(=O)NS(C)(=O)=O :: 63.1
Cc1sc(N(Cc2ccc(Cl)cc2Cl)c2ccc(C#N)cc2)nc1C(=O)NS(C)(=O)=O :: 25.1
Cc1sc(N(CCc2ccc(Cl)cc2)Cc2cccc(F)c2)nc1C(=O)NS(C)(=O)=O :: 25.1

(1) Cc1sc(N(Cc2ccc(Br)cn2)c2ccc(C#N)cc2)nc1C(=O)NS(C)(=O)=O
(2) Cc1sc(N(CCCC2CCCC2)c2ccc(C#N)cc2)nc1C(=O)NS(C)(=O)=O
(3) Cc1oc(N(CCc2ccc(Cl)cc2)Cc2ccc(Cl)cn2)nc1C(=O)NS(C)(=O)=O
Endpoint returns the given molecules ordered by ascending EC50. The labels, placed in the requested order, form the answer.
2, 3, 1

====

TARGET_ENTITY: human androgen receptor (Homo sapiens, UniProt P10275)
Construct: expressed in transfected cells; host or cells: HEK293
Sequence (P10275 1-920): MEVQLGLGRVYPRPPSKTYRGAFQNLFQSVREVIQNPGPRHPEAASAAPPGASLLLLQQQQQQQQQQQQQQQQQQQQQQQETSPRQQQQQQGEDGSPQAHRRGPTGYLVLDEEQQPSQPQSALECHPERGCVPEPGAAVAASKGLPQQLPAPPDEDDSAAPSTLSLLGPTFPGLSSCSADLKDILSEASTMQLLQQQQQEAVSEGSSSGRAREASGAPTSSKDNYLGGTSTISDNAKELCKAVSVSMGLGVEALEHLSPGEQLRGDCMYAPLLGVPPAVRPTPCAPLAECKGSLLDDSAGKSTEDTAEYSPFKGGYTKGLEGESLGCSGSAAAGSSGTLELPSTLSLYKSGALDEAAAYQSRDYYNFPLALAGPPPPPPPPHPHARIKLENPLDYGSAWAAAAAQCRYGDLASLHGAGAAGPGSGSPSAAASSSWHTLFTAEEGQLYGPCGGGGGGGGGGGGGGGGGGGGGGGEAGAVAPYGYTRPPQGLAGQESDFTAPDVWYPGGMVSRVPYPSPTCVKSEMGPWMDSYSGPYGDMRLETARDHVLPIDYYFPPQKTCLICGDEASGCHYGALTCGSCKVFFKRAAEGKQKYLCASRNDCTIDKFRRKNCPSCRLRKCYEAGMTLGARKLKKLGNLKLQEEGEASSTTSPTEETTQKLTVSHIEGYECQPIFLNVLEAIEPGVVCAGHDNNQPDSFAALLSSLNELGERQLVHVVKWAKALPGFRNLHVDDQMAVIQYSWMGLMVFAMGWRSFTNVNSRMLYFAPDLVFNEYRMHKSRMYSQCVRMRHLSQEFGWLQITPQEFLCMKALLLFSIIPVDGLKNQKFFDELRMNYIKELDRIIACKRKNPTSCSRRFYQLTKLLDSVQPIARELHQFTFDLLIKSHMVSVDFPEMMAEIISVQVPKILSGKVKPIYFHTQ
ASSAY_PROTOCOL: Reporter assay of an androgen receptor responsive sequence (luciferase, transiently transfected HEK293 cells)
Format: cell-based
EXPERIMENTAL_PARAMETERS: 24 hours incubation, relative to activity of 100 nM DHT, read-out: AR transcriptive activity (pEC50) (converted)
PROPERTY_LABEL: EC50 (nM)

The examples below pair each entry with its known result.
Cc1sc(N(Cc2ccc(Br)cn2)c2ccc(C#N)cc2)nc1C(=O)NS(C)(=O)=O [Compound 153] :: 50.1
Cc1nc(CN(c2ccc(C#N)cc2)c2nc(C(=O)NS(C)(=O)=O)c(Br)s2)cs1 [Example 281] :: 631
Cc1sc(N(Cc2ccc(OC(F)F)cc2)c2ccc(C(F)(F)F)nc2)nc1C(=O)NS(C)(=O)=O [Compound 472] :: 398
Cc1sc(N(Cc2cccc(OC(F)(F)F)c2)c2ccc(C#N)cc2)nc1C(=O)NS(C)(=O)=O [Compound 343] :: 100
COCCCS(=O)(=O)NC(=O)c1nc(N(Cc2ccc(Cl)cc2)c2ccc(C#N)cc2)sc1C [Example 166] :: 79.4

(1) CCc1oc(N(Cc2ccc(Cl)c(F)c2)c2ccc(C#N)cc2)nc1C(=O)NS(C)(=O)=O [Compound 651]
(2) Cc1oc(N(Cc2ccc(Cl)c(Cl)c2)c2ccc(C#N)cc2)nc1C(=O)NS(C)(=O)=O [Compound 608]
Pick one: 1 or 2 . Which has the bigger EC50 number? Identify your selection by its label.
2

(1) Cc1sc(N(Cc2ccc(-c3ccccc3F)nc2)c2ccc(C#N)cc2)nc1C(=O)NS(C)(=O)=O [Compound 591]
(2) Cc1sc(N(CCc2ccc(OC(F)F)cc2)Cc2ccccc2)nc1C(=O)NS(C)(=O)=O [Compound 160]
(3) Cc1sc(N(Cc2ccccc2F)c2ccc(C#N)cc2)nc1C(=O)NS(C)(=O)=O [Compound 13]
Arrange the 3 entries by EC50 so the values rise. Quick reminder: the answer is the labels in the order asked.
3, 2, 1
